# log10 IC50 at 72 h per entry
assay: Cytotoxicity against human NCM460 cells incubated for 72 hrs by CCK-8 assay; format: toxicity, cell-based
Quick note: numbers are log10 of IC50 at 72 h, with nM as the unit.

COc1ccc2c(c1O)C(=O)c1c3c(cc(O)c1C2=O)[C@@]12O[C@@]1([C@@H](C)O)[C@H](C#C/C=C\C#C[C@H]2O)N3 | -0.70
COC(=O)[C@@H](O)[C@@](C)(O)[C@@]12O[C@]13c1cc(O)c4c(c1N[C@H]2C#C/C=C\C#C[C@H]3O)C(=O)c1c(ccc(OC)c1O)C4=O | -0.40
COc1ccc2c(c1OC)C(=O)c1c3c(cc(OC)c1C2=O)[C@@]12O[C@@]1([C@@H](C)O)[C@H](C#C/C=C\C#C[C@H]2O)N3 | 2.58
COC(=O)[C@@H](O)[C@@](C)(O)[C@@]12O[C@]13c1cc(O)c4c(c1N[C@H]2C#C/C=C\C#C[C@H]3O)C(=O)c1cc(OC)ccc1C4=O | 0.45

Moving on to another compound below.
Param item = COC(=O)[C@@H](O)[C@@](C)(O)[C@@]12O[C@]13c1cc(O)c4c(c1N[C@H]2C#C/C=C\C#C[C@H]3O)C(=O)c1c(O)c(OC)cc(-n2[nH]c(=O)n(-c3ccccc3)c2=O)c1C4=O ; retrieve measured log10 IC50 at 72 h.
2.36

// data source = ChEMBL document CHEMBL5518228
